# testedSystem: VIP receptor on human cells (human)
# protocolText: competition with 125I-VIP on HMC1 cells
pIC50: −log10 of the molar value. No end group written: not given here.
This listing pairs binders with measured pIC50.
recordedMetric: pIC50

binder="HSDAVFTDNYTRLRKQMAVKKYLNSILNGGC-NH2 (also: non-radioactive ReO complexed to the chelating moiety) [ReO-complexed P916]" recordedmetric=pIC50 measuredresult=8.15
binder="HSDAVFTDNYTRLRKQMAVKKYLNSILNC (C-terminal C(BAT): S-(N6,N9-bis(2-mercapto-2-methylpropyl)-6,9-diazanonan-1-yl)cysteine; C-terminal amide; non-radioactive ReO complexed to the chelating moiety) [ReO-complexed P917]" recordedmetric=pIC50 measuredresult=8.15
binder="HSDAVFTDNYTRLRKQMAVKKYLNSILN-NH2 [Vasoactive intestinal peptide (VIP)]" recordedmetric=pIC50 measuredresult=8.15
binder="AGCHSDAVFTDNYTRLRKQMAVKKYLNSILN-NH2 (also: non-radioactive ReO complexed to the chelating moiety) [ReO-complexed P915]" recordedmetric=pIC50 measuredresult=7.82
binder="HSDAVFTDNYTRLRKQMAVKKYLNSILNKGC ((ε-K): lysine 29 linked through its ε-amino group; C-terminal amide; non-radioactive ReO complexed to the chelating moiety) [ReO-complexed P887]" recordedmetric=pIC50 measuredresult=8.07

src = patent US5849261
